- Tested on: Mycobacterium tuberculosis
- method-notes: Cornell - Phenotypic assay to identify agents that inhibit growth of Mycobacterium tuberculosis
- Format: functional
- Set-up: scale not given: direction of the effect not stated beside the values
- measurement-context: 10 mM as filed; unlikely as a test dose
Screen size: about 53,000 compounds; about 900 (1.7%) showed an effect of 50% or more. This excerpt belongs to a sample that is enriched for strong results.
Some compounds, each annotated with its measured Percent Effect.
Write down the numeric answer in % and omit the unit.

CCN1CCN(S(=O)(=O)c2c[nH]c(C(C)C)n2)c2ccccc21 | 19.57
CC(C)CN1Cc2c(C(=O)N(C)C)ncn2-c2ccccc2S1(=O)=O | -10.19
O=C(C1=CCCC1)N1C[C@@H]2COC[C@]2(COCc2ccncc2)C1 | -20.46
Cc1cccc(-c2nccnc2C2CCN(C)CC2)c1C | -15.39
CC(C)c1n[nH]c(C(=O)Nc2ccnn2C(C)C)c1Br | -19.54

Next:
Q. Which value of Percent Effect has been reported for COc1ccc(N2CCC(NCc3csc(C(C)C)n3)CC2)cc1 in the records?
A. 77.68

* * *

- System: Mycobacterium tuberculosis
- method-notes: Cornell - Phenotypic assay to identify agents that inhibit growth of Mycobacterium tuberculosis
- Format: functional
- Parameters: scale not given: direction of the effect not stated beside the values
- measurement-context: 10 mM as filed; unlikely as a test dose
Hit rate of the full screen: of about 53,000 compounds, about 900 (1.7%) showed an effect of 50% or more. What follows is part of a selection rich in strong results, with near analogues and random picks from the rest.
observed-property: Percent Effect (%)
# value in %; strip the unit string

Example results:
CC(Cn1cncn1)NCc1csc2c1CCCC2 (stereo not drawn) | 6.492
Cc1cc(CS(=O)(=O)C(C)C(=O)N(C)c2ccccc2)on1 (stereo not drawn) | -17.42

Q. What value of measured Percent Effect is listed for COc1cccc(-c2cccc(-c3ccn(CC4COCCO4)n3)c2)n1 (stereo not drawn) ?
A. -2.003

Q. # input compound: Cc1cnc(CN2CCC(N(C)Cc3nnc(C4CC4)n3C)C2)cn1 (stereo not drawn) ; wanted: its Percent Effect
A. 8.133

Q. GET /values?readout=Percent Effect&item= CSc1nccc(-c2cccc(-c3ccn(CC4COCCO4)n3)c2)n1 (stereo not drawn)
A. 71.9

* * *

- Tested on: Mycobacterium tuberculosis
- method-notes: Cornell - Phenotypic assay to identify agents that inhibit growth of Mycobacterium tuberculosis
- Type: functional
- Parameters: scale not given: direction of the effect not stated beside the values
- measurement-context: 10 mM as filed; unlikely as a test dose
The whole screen tested about 53,000 compounds, of which about 900 (1.7%) showed an effect of 50% or more. The sample as a whole holds a higher share of strong results than the screen did.
// boundary case: Percent Effect equal to 50% maps to Not met; strictly smaller maps to Met

O=C1CC[C@@H](CN(Cc2ccncc2)Cc2nc(-c3cccs3)no2)N1 | Met
CC(Cn1cccn1)NCc1csc(-c2ccc3c(c2)OCO3)n1 (centres undefined) | Not met
CC(Cn1cccn1)NCc1csc(-c2cccs2)n1 (centres undefined) | Not met

Q. Threshold test, Percent Effect < 50%: CC(Cn1cccn1)NCc1nc(-c2ccc3c(c2)OCO3)no1 (centres undefined)
A. Met

Q. Bench note: check whether COCCc1noc(CNC(C)(CO)C2CCCCC2)n1 (centres undefined) shows Percent Effect below 50%
A. Met

Q. Does the reported Percent Effect of the following molecule sit strictly below 50%? Cc1c(C(=O)N2CCN(c3ccccn3)CC2)n(C)c2ccc(Cl)cc12
A. Not met

Q. Given CCc1cc(N(C)Cc2ccncn2)n2nc(C)c(C)c2n1 , is recorded Percent Effect strictly lower than 50%?
A. Not met

Q. Percent Effect strictly < 50% for this molecule? CC(Cn1cccn1)NCc1csc(-c2ccsc2)n1 (centres undefined)
A. Met

Q. Hello, I'm reviewing records and need to know if Percent Effect of COCCC1COC2(CCN(C(=O)c3ccncc3)CC2)C1.O=C(O)C(F)(F)F (centres undefined) is below 50%. Could you check?
A. Met

Q. Determine whether this molecule shows Percent Effect lower than 50% (ties excluded): Cc1c(C(=O)N2CCN(c3ncccn3)CC2)n(C)c2ccc(Cl)cc12
A. Met

Q. Confirm or reject: Percent Effect of Cc1c(C(=O)N2CCN(C)CC2)n(C)c2ccc(Cl)cc12 lies strictly below 50%
A. Met

Q. Check if Percent Effect falls below 50% for CCc1cc(N(C)Cc2cc[nH]n2)n2nc(C)c(C)c2n1 .
A. Met

Q. Determine if O=C(O)C(F)(F)F.O=C([C@H]1C[C@H]2OCC[C@H]2N(Cc2ccccn2)C1)N1CCCCO1 shows Percent Effect strictly lower than 50%.
A. Met

* * *

- Tested on: Mycobacterium tuberculosis
- method-notes: Cornell - Phenotypic assay to identify agents that inhibit growth of Mycobacterium tuberculosis
- Format: functional
- Parameters: scale not given: direction of the effect not stated beside the values
- measurement-context: 10 mM as filed; unlikely as a test dose
The campaign covered roughly 53,000 compounds. About 900 (1.7%) showed an effect of 50% or more. This is one part of a sample in which strong results are shown more often than they occur.
observed-property: Percent Effect (%)
Write it as a number; the unit % goes unstated.

Cc1cc(NC(=O)c2ccc(N3CCOCC3)cc2)[nH]n1 | 29.03
CN1CCOC(C)(C(=O)Nc2nccs2)C1 (stereo not given) | -67.22
Cc1ncncc1C(=O)N1CCOC(C(=O)NC2CCCC2)C1 (stereo not given) | -44.04
CCCNC(=O)c1nn(CC)cc1NC(=O)c1cn(C)nc1C | 34.88

Q. What does the record list as Percent Effect for NC(CC1CCCC1)c1ccc(Oc2ccccc2)cc1 (stereo not given) ?
A. 105

Q. I have this compound here, COc1ccc(CC(=O)Nc2c(C)nc(N3CCCC3)nc2C)cc1 , and I need its recorded Percent Effect.
A. 59.35

Q. Would you mind telling me what Percent Effect value was observed for Cc1cc(C[C@@H]2COC[C@H]2NCc2ccc(C)c(C)c2)on1.O=C(O)CC(O)(CC(=O)O)C(=O)O ?
A. -9.136

Q. // query Percent Effect value for entry N#Cc1nc(COc2ccc3c(c2)OCO3)oc1N1CCCCCC1
A. 35.88

Q. Please give the measured Percent Effect for this compound: CC(C)NC(=O)c1nc(COc2ccc3c(c2)OCO3)no1
A. 22.39

Q. Recorded Percent Effect of Cc1cc(NCc2ccccc2)nc2[nH]nc(N)c12 , please.
A. 99.95

* * *

- System: Mycobacterium tuberculosis
- method-notes: Cornell - Phenotypic assay to identify agents that inhibit growth of Mycobacterium tuberculosis
- Format: functional
- Set-up: scale not given: direction of the effect not stated beside the values
- measurement-context: 10 mM as filed; unlikely as a test dose
The whole screen tested about 53,000 compounds, of which about 900 (1.7%) showed an effect of 50% or more. The list comes from a sample in which strong results are over-represented; it also holds close analogues and randomly drawn compounds.
observed-property: Percent Effect (%)
The response must be a number in % with no trailing unit.

O=C(Cc1cccnc1)N1CC(Cc2nccc3cc[nH]c23)C1 | 4.598
Cc1noc(C)c1CNC(=O)Nc1ccc(N2CCOC(C)C2)cc1 (stereo not given) | 103.9
Cc1noc(C)c1CNC(=O)Nc1ccc(N2CCOC2=O)cc1 | -58.42
Cc1noc(C)c1CNC(=O)NCCC(=O)N1CCCc2ccccc21 | -5.48
COc1ccc(F)c(-c2ncccc2NC(=O)C(C)C)c1 | -36.39
Cc1nn(C)c(C)c1NC(=O)CN1CCOC(CN(C)C)C1 (stereo not given) | 13.8

Q. Give recorded Percent Effect with Mycobacterium tuberculosis for the following compound: COCC1c2nnn(CC3CC3)c2CCN1Cc1ccncc1.O=C(O)C(F)(F)F.O=C(O)C(F)(F)F (stereo not given)
A. 18.59

Q. Field: Percent Effect (Mycobacterium tuberculosis). Entry: CCn1nc(C)c2ncnc(N(C)C)c21
A. -48.95

Q. Recorded Percent Effect for CCOc1ncccc1NC(=O)N1CCC(n2cncn2)CC1 with Mycobacterium tuberculosis, please?
A. 14.59

* * *

- Test system: Mycobacterium tuberculosis
- method-notes: Cornell - Phenotypic assay to identify agents that inhibit growth of Mycobacterium tuberculosis
- Assay type: functional
- Set-up: scale not given: direction of the effect not stated beside the values
- measurement-context: 10 mM as filed; unlikely as a test dose
Among all 53,000 compounds or so, about 900 (1.7%) showed an effect of 50% or more. Only a selection was taken, and strong results are over-represented in it overall.
Measured Percent Effect by item
Your answer should be a plain number; it is taken to be in %.

Consider the following illustrative entries.
COCc1nc2cc(NCc3ncc[nH]3)ccc2o1 | 107.7
CS(=O)(=O)NCC1Cc2ccccc2O1 (stereo not given) | -12.85
O=c1cc(CN2CCCC2)nc2n1CCCN(CC1CC1)C2 | -16.69
COc1ccc(-c2nc(CNCCn3cccn3)cs2)cc1 | 49.39
CCC1CN(CCCNS(C)(=O)=O)c2ccccc2O1 (stereo not given) | 99.54
Cc1csc(CNc2cccc(OCCN3CCCC3)c2)n1 | 34.79

Q. Using the record for CCc1ccc(-n2c(=O)[nH]c3nc(N4CCSCC4)ncc3c2=O)cc1 , report its Percent Effect.
A. -3.279

Q. Please look up its Percent Effect: CCCN(CC1COc2ccccc2O1)C(=O)CCN1C(=O)CCC1=O (stereo not given)
A. 17.77

Q. Could you tell me which Percent Effect is on file for O=C(O)C(F)(F)F.c1ccc(N2CCCC3(COCCN(c4nccs4)C3)C2)nc1 (stereo not given) ?
A. 51.66

Q. Recorded Percent Effect for CN(Cc1cncnc1)[C@@H]1CN(C(=O)C2CC2)[C@@H]2CCCO[C@H]12.O=C(O)C(F)(F)F , please?
A. 10.43

Q. Percent Effect lookup needed for CC(C)(C)OC(=O)N1CCCc2ccc(NCc3ncc[nH]3)cc21 , thanks.
A. -12.48

Q. Requested field: Percent Effect. Item: Cc1nc(N2CCCC2)nc2c1CCN(Cc1nccn1C)CC2.O=C(O)C(F)(F)F
A. 0.1901

Q. Return reported Percent Effect; argument: CC(C)c1cc(N2CCN(c3ccc(O)cc3)CC2)n2nccc2n1
A. 106.1
